Reference source: ChEMBL document CHEMBL5154816

Species on record: Homo sapiens
procedure text: Selectivity index, ratio of IC50 for BRD4 BD1 (unknown origin) to IC50 of BRD4 BD2 (unknown origin)
# reported Ratio IC50; entries follow
Number only, no unit.

// Ratio IC50 lookup, compound = `CCc1ncc(-c2cc3c(=O)n(C)cc(-c4cc(NS(=O)(=O)CC)ccc4Oc4ccc(F)cc4F)c3o2)[nH]1` , result: 2.4

// Ratio IC50 lookup, compound = `CCS(=O)(=O)Nc1ccc(Oc2ccc(F)cc2F)c(-c2cn(C)c(=O)c3cc(-c4cnc(C5CC5)[nH]4)oc23)c1` , result: 2.06

// Ratio IC50 lookup, compound = `CCS(=O)(=O)Nc1ccc(Oc2ccc(F)cc2F)c(-c2cn(C)c(=O)c3cc(-c4cnc(C5CCCC5)[nH]4)oc23)c1` , result: 4.52

// Ratio IC50 lookup, compound = `CCS(=O)(=O)Nc1ccc(Oc2ccc(F)cc2F)c(-c2cn(C)c(=O)c3cc(-c4cc(C)c(OCCO)c(C)c4)oc23)c1` , result: 0.93

// Ratio IC50 lookup, compound = `CCCS(=O)(=O)Nc1ccc(Oc2ccc(F)cc2F)c(-c2cn(C)c(=O)c3cc(-c4cc(C)c(OCCO)c(C)c4)oc23)c1` , result: 1.54

// Ratio IC50 lookup, compound = `Cc1cc(-c2cc3c(=O)n(C)cc(-c4cc(NC(=O)C(C)C)ccc4Oc4ccc(F)cc4F)c3o2)cc(C)c1OCCO` , result: 4.11

// Ratio IC50 lookup, compound = `CC(=O)Nc1ccc(Oc2ccc(F)cc2F)c(-c2cn(C)c(=O)c3cc(-c4cc(C)c(OCCO)c(C)c4)oc23)c1` , result: 0.63

// Ratio IC50 lookup, compound = `CCS(=O)(=O)Cc1ccc(Oc2ccc(F)cc2F)c(-c2cn(C)c(=O)c3cc(-c4cc(C)c(OCCO)c(C)c4)oc23)c1` , result: 0.6

// Ratio IC50 lookup, compound = `CCS(=O)(=O)Nc1ccc(Oc2c(C)cccc2C)c(-c2cn(C)c(=O)c3cc(-c4cc(C)c(OCCO)c(C)c4)oc23)c1` , result: 4.62

* * *

# reported ΔTm; entries follow
tested on: Transcription initiation factor TFIID subunit 1 (Homo sapiens) (UniProt P21675)
Sequence (P21675 whole entry): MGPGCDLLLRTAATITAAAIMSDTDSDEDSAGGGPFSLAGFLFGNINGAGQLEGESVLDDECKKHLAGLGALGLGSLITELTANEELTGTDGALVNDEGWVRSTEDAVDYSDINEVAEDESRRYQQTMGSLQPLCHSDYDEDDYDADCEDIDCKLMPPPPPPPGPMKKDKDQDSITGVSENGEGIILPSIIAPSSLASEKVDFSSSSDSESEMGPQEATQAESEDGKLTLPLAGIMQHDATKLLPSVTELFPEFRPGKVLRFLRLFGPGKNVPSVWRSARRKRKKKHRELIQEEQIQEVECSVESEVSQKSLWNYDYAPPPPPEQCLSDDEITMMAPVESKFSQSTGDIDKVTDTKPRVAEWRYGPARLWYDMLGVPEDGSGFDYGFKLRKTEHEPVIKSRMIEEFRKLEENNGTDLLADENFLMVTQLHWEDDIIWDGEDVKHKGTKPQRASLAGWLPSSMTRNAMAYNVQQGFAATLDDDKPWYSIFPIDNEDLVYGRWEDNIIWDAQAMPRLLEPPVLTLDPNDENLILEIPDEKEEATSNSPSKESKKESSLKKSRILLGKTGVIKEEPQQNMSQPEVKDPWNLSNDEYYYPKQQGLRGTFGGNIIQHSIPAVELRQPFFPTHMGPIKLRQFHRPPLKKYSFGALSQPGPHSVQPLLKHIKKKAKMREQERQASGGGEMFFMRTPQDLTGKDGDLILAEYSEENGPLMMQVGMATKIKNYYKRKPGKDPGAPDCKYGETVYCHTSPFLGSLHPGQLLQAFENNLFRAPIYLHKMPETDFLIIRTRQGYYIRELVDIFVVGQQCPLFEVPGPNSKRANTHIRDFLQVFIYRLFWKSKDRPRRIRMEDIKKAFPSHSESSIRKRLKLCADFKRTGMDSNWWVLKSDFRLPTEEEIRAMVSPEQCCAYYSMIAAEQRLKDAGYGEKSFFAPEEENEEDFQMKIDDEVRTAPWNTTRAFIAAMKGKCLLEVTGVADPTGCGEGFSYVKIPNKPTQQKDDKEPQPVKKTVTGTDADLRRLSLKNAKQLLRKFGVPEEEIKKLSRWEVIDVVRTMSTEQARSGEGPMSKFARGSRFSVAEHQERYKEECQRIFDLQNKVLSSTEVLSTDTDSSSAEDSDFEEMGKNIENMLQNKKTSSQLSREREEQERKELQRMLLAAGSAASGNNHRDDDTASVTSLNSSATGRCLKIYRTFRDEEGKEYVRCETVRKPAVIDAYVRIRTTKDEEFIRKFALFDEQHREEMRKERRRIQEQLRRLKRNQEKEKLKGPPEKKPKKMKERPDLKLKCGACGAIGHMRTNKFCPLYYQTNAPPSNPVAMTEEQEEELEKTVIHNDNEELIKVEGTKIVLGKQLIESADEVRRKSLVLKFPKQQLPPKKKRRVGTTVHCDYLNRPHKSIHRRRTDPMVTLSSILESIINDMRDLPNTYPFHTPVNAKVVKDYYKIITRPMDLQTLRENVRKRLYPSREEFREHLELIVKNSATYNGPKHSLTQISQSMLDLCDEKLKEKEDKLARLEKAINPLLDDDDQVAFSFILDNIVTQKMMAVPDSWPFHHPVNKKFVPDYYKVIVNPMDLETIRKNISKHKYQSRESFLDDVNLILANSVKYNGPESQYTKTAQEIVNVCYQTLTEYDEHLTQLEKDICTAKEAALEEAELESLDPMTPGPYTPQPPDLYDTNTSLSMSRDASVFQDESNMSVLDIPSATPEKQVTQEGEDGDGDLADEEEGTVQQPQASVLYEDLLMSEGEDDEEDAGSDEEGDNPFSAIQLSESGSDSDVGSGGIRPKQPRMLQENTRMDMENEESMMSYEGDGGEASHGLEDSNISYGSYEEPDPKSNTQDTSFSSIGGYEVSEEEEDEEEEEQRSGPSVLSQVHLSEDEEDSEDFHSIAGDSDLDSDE
procedure text: Binding affinity to TAF1 BD1(unknown origin) assessed as change in melting temperature at 100 uM incubated for 30 mins by thermal shift assay
// units = °C; emit number, no label

These solved cases illustrate the format of a correct answer.
Cc1cc(F)cc(C)c1Oc1ccc(C(C)(C)O)cc1-c1cn(C)c(=O)c2cc(-c3cnc(C4CCCC4)[nH]3)oc12    -1
Cc1cc(F)cc(C)c1Oc1ccc(C(C)(C)O)cc1-c1cn(C)c(=O)c2cc(-c3cnc(C4CC4)[nH]3)oc12    -1.25
Cc1cc(F)cc(C)c1Oc1ccc(C(C)(C)O)cc1-c1cn(C)c(=O)c2cc(-c3cnc(C4CCC4)[nH]3)oc12    -1

Now take the following compound into account.
// compound `Cc1cc(F)cc(C)c1Oc1ccc(C(C)(C)O)cc1-c1cn(C)c(=O)c2cc(-c3cnc(C4CCCCC4)[nH]3)oc12` , assay Transcription initiation factor TFIID subunit 1 (Homo sapiens) (UniProt P21675), ΔTm value: -1.25

* * *

tested on: Chromatin remodeling regulator CECR2 (Homo sapiens) (UniProt Q9BXF3)
Sequence (Q9BXF3 whole entry, looked up): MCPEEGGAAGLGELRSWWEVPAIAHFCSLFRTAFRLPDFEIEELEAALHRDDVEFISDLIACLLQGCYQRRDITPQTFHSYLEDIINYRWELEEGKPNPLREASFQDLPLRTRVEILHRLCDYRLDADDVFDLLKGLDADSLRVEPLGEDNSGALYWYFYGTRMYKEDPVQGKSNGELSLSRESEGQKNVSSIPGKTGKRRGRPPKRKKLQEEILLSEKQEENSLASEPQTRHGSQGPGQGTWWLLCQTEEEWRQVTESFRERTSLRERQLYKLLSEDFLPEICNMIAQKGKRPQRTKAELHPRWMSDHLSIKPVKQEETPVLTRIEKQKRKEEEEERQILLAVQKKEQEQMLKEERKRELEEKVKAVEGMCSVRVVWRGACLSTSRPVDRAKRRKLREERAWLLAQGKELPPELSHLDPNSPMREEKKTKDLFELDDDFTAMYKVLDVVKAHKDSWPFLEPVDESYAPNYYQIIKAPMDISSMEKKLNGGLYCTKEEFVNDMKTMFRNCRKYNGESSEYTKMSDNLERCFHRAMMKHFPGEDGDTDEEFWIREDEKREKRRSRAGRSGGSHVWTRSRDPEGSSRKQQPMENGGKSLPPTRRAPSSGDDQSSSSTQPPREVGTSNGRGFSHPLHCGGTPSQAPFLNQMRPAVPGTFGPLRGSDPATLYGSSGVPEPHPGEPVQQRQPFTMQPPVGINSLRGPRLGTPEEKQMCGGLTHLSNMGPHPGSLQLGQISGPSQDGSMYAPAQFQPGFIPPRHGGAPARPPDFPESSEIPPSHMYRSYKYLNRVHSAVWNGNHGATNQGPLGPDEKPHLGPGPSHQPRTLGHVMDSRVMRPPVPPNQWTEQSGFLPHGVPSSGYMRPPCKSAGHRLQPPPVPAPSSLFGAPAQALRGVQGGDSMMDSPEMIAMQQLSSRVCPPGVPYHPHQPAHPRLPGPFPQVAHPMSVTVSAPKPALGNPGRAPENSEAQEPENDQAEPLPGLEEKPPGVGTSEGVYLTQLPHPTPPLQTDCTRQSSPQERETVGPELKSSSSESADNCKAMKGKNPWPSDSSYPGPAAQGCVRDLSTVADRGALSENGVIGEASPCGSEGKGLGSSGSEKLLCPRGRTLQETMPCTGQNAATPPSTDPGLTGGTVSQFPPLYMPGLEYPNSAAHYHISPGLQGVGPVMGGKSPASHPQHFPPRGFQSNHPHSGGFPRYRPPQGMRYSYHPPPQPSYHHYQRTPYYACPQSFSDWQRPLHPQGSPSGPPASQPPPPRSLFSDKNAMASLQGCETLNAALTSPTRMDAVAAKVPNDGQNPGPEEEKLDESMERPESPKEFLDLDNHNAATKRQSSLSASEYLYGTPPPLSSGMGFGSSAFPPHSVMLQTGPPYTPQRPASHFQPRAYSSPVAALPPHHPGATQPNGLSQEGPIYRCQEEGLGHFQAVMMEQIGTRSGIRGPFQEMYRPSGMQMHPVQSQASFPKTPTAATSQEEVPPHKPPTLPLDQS
procedure text: Binding affinity to CECR2 (unknown origin) assessed as change in melting temperature at 100 uM incubated for 30 mins by thermal shift assay
# reported ΔTm; entries follow
// units = °C; emit number, no label

Cc1cc(F)cc(C)c1Oc1ccc(C(C)(C)O)cc1-c1cn(C)c(=O)c2cc(-c3cnc(C4CCCCC4)[nH]3)oc12    -0.25
Cc1cc(F)cc(C)c1Oc1ccc(C(C)(C)O)cc1-c1cn(C)c(=O)c2cc(-c3cnc(C4CCC4)[nH]3)oc12    -0.25
Cc1cc(F)cc(C)c1Oc1ccc(C(C)(C)O)cc1-c1cn(C)c(=O)c2cc(-c3cnc(C4CCCC4)[nH]3)oc12    0

Now take the following compound into account.
// compound `Cc1cc(F)cc(C)c1Oc1ccc(C(C)(C)O)cc1-c1cn(C)c(=O)c2cc(-c3cnc(C4CC4)[nH]3)oc12` , assay Chromatin remodeling regulator CECR2 (Homo sapiens) (UniProt Q9BXF3), ΔTm value: 0
